Answer each item with its documented abundance fitness.
B1: Storkhead-box protein 2, residues 64 to 141; numbered along this chain, Q9P2F5 (parent)
chain: SPISQSQFIPLGEILCLAISAMNSARKPVTQEALMEHLTTCFPGVPTPSQEILRHTLNTLVRERKIYPTPDGYFIVTP

Variants of: B1
Assay: abundance fitness (aPCA) (normalised: wild type 0, dead -1); higher = more abundant; growth selection in yeast, the domain comes from the species named
Settings: Homo sapiens
API note: the answer field is a bare number with no unit suffix.

# lookup: abundance fitness of "Y73T"
-0.174

# lookup: abundance fitness of "A25C"
-0.05

# lookup: abundance fitness of "N58L"
-0.025

# lookup: abundance fitness of "L34Q"
-0.774

# lookup: abundance fitness of "P78S"
-0.038

# lookup: abundance fitness of "Y73V"
-0.171

# lookup: abundance fitness of "Q5P"
-0.125

# lookup: abundance fitness of "S6R"
-0.062

# lookup: abundance fitness of "M22I"
-0.128

# lookup: abundance fitness of "T56G"
-0.051

# lookup: abundance fitness of "R62I"
0.006

# lookup: abundance fitness of "V29N"
-1.07

# lookup: abundance fitness of "I9N"
0.131

# lookup: abundance fitness of "G44W"
-0.103

# lookup: abundance fitness of "S20P"
-0.405

# lookup: abundance fitness of "A25E"
-0.049

# lookup: abundance fitness of "T39F"
-0.099

# lookup: abundance fitness of "H37W"
-0.27

# lookup: abundance fitness of "S20A"
-0.104

# lookup: abundance fitness of "L34R"
-0.83

# lookup: abundance fitness of "S6H"
-0.334

# lookup: abundance fitness of "N58F"
-0.172

# lookup: abundance fitness of "S4N"
-0.038

# lookup: abundance fitness of "P70H"
-0.143

# lookup: abundance fitness of "M35T"
-0.024

# lookup: abundance fitness of "Q5K"
0.012

# lookup: abundance fitness of "T30Y"
-0.142

# lookup: abundance fitness of "P70W"
-0.141

# lookup: abundance fitness of "D71F"
-0.099

# lookup: abundance fitness of "P46I"
0.015

# lookup: abundance fitness of "V61K"
-0.146

# lookup: abundance fitness of "L38Y"
-0.391

# lookup: abundance fitness of "S4G"
-0.17

# lookup: abundance fitness of "Y67N"
-0.06

# lookup: abundance fitness of "V76G"
-0.011

# lookup: abundance fitness of "P28V"
-0.072

# lookup: abundance fitness of "Q50T"
-0.08

# lookup: abundance fitness of "T40K"
-0.042

# lookup: abundance fitness of "Q31E"
0.01

# lookup: abundance fitness of "T30G"
-0.116

# lookup: abundance fitness of "T47L"
-0.073

# lookup: abundance fitness of "L15H"
-0.796

# lookup: abundance fitness of "A33T"
-0.118

# lookup: abundance fitness of "P2W"
-0.102

# lookup: abundance fitness of "A33V"
-0.127

# lookup: abundance fitness of "R64C"
-0.128

# lookup: abundance fitness of "K65W"
-0.209

# lookup: abundance fitness of "P2R"
0.019

# lookup: abundance fitness of "L60W"
-0.525

# lookup: abundance fitness of "V76P"
0.001

# lookup: abundance fitness of "R62P"
-0.944

# lookup: abundance fitness of "N23V"
-0.143

# lookup: abundance fitness of "F8Q"
-0.196

# lookup: abundance fitness of "E51A"
-0.085

# lookup: abundance fitness of "T56Y"
-0.26

# lookup: abundance fitness of "R64S"
-0.021

# lookup: abundance fitness of "P10M"
0.048

# lookup: abundance fitness of "L38P"
-0.998

# lookup: abundance fitness of "V76M"
0.035

# lookup: abundance fitness of "P78E"
-0.44

# lookup: abundance fitness of "N23F"
-0.535

# lookup: abundance fitness of "P70I"
0.021

# lookup: abundance fitness of "S49C"
-0.068

# lookup: abundance fitness of "P68C"
0.044

# lookup: abundance fitness of "S6N"
-0.033

# lookup: abundance fitness of "P28F"
-0.187

# lookup: abundance fitness of "R54E"
0.013

# lookup: abundance fitness of "N58D"
-0.005

# lookup: abundance fitness of "I66T"
-0.38

# lookup: abundance fitness of "V29Y"
-0.592

# lookup: abundance fitness of "S49V"
-0.575

# lookup: abundance fitness of "E13T"
-0.016

# lookup: abundance fitness of "K27F"
-0.182

# lookup: abundance fitness of "L38G"
-0.787

# lookup: abundance fitness of "Q31M"
-0.049

# lookup: abundance fitness of "P68S"
0.059

# lookup: abundance fitness of "M22K"
-0.403

# lookup: abundance fitness of "G44F"
-0.156

# lookup: abundance fitness of "H37R"
-0.144

# lookup: abundance fitness of "L17F"
-0.096

# lookup: abundance fitness of "P2S"
0.002

# lookup: abundance fitness of "P68I"
-0.046

# lookup: abundance fitness of "E13M"
-0.206

# lookup: abundance fitness of "G72E"
-0.078

# lookup: abundance fitness of "I66E"
-1.08

# lookup: abundance fitness of "L11G"
-0.277

# lookup: abundance fitness of "P68H"
0.051

# lookup: abundance fitness of "I9G"
0.025

# lookup: abundance fitness of "C41M"
0.032

# lookup: abundance fitness of "P70M"
-0.097

# lookup: abundance fitness of "G12A"
-0.3
